- Tested on: male ddy mice
- assayDetails: Tail-suspension test in mice
- Format: in vivo
- conditionDescription: inhibition of immobility vs. vehicle; 10 mg/kg orally 1 hour before measurement; ten animals per group
Recorded Inhibition (%), one value per entry.
Answer in %, number only, no unit symbol.

Worked cases, answers included:
compound	unitAnnotation	valueObserved
Cc1cc(Cl)ccc1S(=O)(=O)NC[C@H]1C2CCC(CC2)[C@H]1/C=C\CCCC(=O)O [Compound A]	%	30
CC(C)CN(c1ccc(C(F)(F)F)cc1OCc1ccc(C=CC(=O)O)cc1)S(=O)(=O)c1ccco1 [Compound C]	%	23
Cc1ccc(S(=O)(=O)N(c2ccc(C(F)(F)F)cc2OCc2ccc(C(=O)O)cc2)C(C)C)o1 [Compound B]	%	35

Attention now shifts to the item below.
Specify the recorded Inhibition (%) for Cc1ccc(S(=O)(=O)N(CC(C)C)c2cc(C)c(C)cc2OCc2ccc(C(=O)O)cc2C)o1 [Compound E] , system: male ddy mice. 38
